- Target of assay: KLF9
- Run description: pooled miR-30 sensor sort-seq; sequence = guide strand; also: reference of the scale not given here
- Settings: shRNA
Attribute: sensor-assay potency score (higher = more potent)
Assay metric: sensor-assay potency score (higher = more potent)

# Biosequence, Measurement
data = [
    ("TTAATCTCAAAAGTTAACGTGA", 0.201),
    ("TTCACCTGTATGCACTCTGTAA", -0.85),
    ("TAAACAAAAATTACTATCCTGC", 0.0439),
    ("TTCTGTAATTGTAACTACCAAA", -0.904),
    ("TTAAACAGTTGTAAAGATCAGT", -0.0225),
    ("TTGTCTTTCACTGACTTTGCTT", -0.214),
    ("TTCAGGTCCAACAAGCTCTTGG", -0.253),
    ("TAGTAGTCCTATTTGAACCATA", -0.845),
]

---

- Target of assay: ROPN1
- Run description: pooled miR-30 sensor sort-seq; sequence = guide strand
- Settings: shRNA
// False strictly below -0.02 in sensor-assay potency score (higher = more potent); True otherwise

# Biosequence, Label value
records = [
    ("TCCATGTAGTTTAGCATCCTGC", "False"),
    ("TATGGTCACATGATAAGACCTC", "False"),
    ("TTCCATGTAGTTTAGCATCCTG", "False"),
    ("TCACTGTGATTATACCATCAGG", "False"),
    ("TGAAGTACAATCATCTCTGTAT", "True"),
    ("TACAAGAAAATTGATTTTGGGT", "True"),
    ("TCCACTTTGGCAATATACGTGT", "False"),
    ("ATCAGGGCCAATTACTTCCTGT", "False"),
]

---

- Target of assay: C21orf70
- Run description: pooled miR-30 sensor sort-seq; sequence = guide strand
- Settings: shRNA
Cut-off -0.9 on sensor-assay potency score (higher = more potent), inclusive. At or above means true; below means false.

# Biosequence, Target of assay, Label value
rows = [
    ("ATTTTCTGCAACCATTGCTCAC", "C21orf70", "false"),
    ("TCTTCCAGCTGCATCTGCCGGG", "C21orf70", "true"),
    ("TTTTATGGCTTCGATTTTCTGC", "C21orf70", "true"),
    ("TTTATTGAGCCCCACAACCGAC", "C21orf70", "false"),
]

---

- Target of assay: RNF125
- Run description: pooled miR-30 sensor sort-seq; sequence = guide strand
- Settings: shRNA
Decision: sensor-assay potency score (higher = more potent) >= -0.9 yields label 1, all other cases yield label 0.

# Biosequence, Label value
rows = [
    ("TACTTATCTATGTACTTCTGAC", "label 1"),
    ("ATGTACTTCTGACAAGTCCGAA", "label 0"),
    ("TATCTATGTACTTCTGACAAGT", "label 1"),
    ("TTATACTCTGATTTCATTCTTT", "label 1"),
    ("ATACTTATCTATGTACTTCTGA", "label 1"),
    ("TAGTGGTCCATACTTATCTATG", "label 0"),
    ("TTATCTATGTACTTCTGACAAG", "label 0"),
]

---

sensor-assay potency score (higher = more potent) values, listed per item
- Target of assay: ZNF630
- Run description: pooled miR-30 sensor sort-seq; sequence = guide strand
- Settings: shRNA
Assay metric: sensor-assay potency score (higher = more potent)

# Biosequence, Measurement
data = [
    ("TTTCACATTGACTATCTCCATA", -0.895),
    ("TAAGTCTGAATTAGACTTCAAG", -0.977),
    ("ATACTTAGTACATTCATAGGGT", 0.067),
    ("TATAATTAGATGTGACTTCTGG", 0.548),
    ("TTCCATACTTAGTACATTCATA", -0.904),
    ("TTCTTTCTTGCATAGCTCCTGT", 0.0285),
    ("TAATTAGATGTGACTTCTGGGA", -0.376),
    ("TTGGACACTCAAAACACTCATA", -0.509),
]

---

- Target of assay: TUBGCP5
- Run description: pooled miR-30 sensor sort-seq; sequence = guide strand
- Settings: shRNA
The entries below are paired with their reported sensor-assay potency score (higher = more potent).
Assay metric: sensor-assay potency score (higher = more potent)

# Biosequence, Measurement
data = [
    ("TAACGGTGTCCTGTCTACCTGA", -0.629),
    ("TAAACTATGAGGAAACTGGGAG", 0.101),
    ("TATTGTAGTATCATTATTGATG", -0.448),
    ("TACAACTCTATACAGTATCTAC", -0.752),
    ("TTTTTCTGCAGTACTAACCAGT", -0.246),
    ("TTTGTGGCTGTTGACATCCAAG", -1.62),
    ("TGGATCATGAACATCATCCAGT", -0.749),
]

---

- Target of assay: CEP110
- Run description: pooled miR-30 sensor sort-seq; sequence = guide strand
- Settings: shRNA
Measured sensor-assay potency score (higher = more potent) by item
Assay metric: sensor-assay potency score (higher = more potent)

# Biosequence, Measurement
records = [
    ("TTTATGGTCTTGATAGTCCAAA", -1.01),
    ("TTTCTTTCTGTCAAGAACTGGT", -0.248),
    ("TTTCTCAATTTCTAGGACCTGT", -0.0728),
    ("TAGTTGTATAGCTTCTTCCAGT", -0.43),
    ("TAACAGATTATTGTCATCCTGC", 0.569),
    ("TTGTAGTCTACCACTCAACTGC", 0.0361),
    ("TTATGTTTAGACATCTGCCTTA", 0.679),
]

---

- Target of assay: SLC26A8
- Run description: pooled miR-30 sensor sort-seq; sequence = guide strand
- Settings: shRNA
Assay metric: sensor-assay potency score (higher = more potent)

# Biosequence, Measurement
rows = [
    ("TTTACAAATGTAATTGAGCTGC", -0.345),
    ("TTAGGTAGTAAACATTTACAAA", -1.21),
    ("TTGATTTTTCTGAGACACGGAC", -0.723),
    ("TGAATTGTCATTCTTGTCTGTT", -0.0701),
    ("TAATCGATACATACACATCCAT", -0.25),
    ("AATCGATACATACACATCCATT", -1.59),
    ("TTTTATATCTTGAATTGTCATT", -1.25),
]

---

- Target of assay: WNT16
- Run description: pooled miR-30 sensor sort-seq; sequence = guide strand
- Settings: shRNA
// bucketize sensor-assay potency score (higher = more potent): bin 0 (below -0.5), bin 1 (-0.5 to below -0.4), bin 2 (-0.4 or more)

# Biosequence, Label value
records = [
    ("TTAACAGTTGAAACTGATCTGT", "bin 2"),
    ("AAATCTAGGAACTTTCTGCTGA", "bin 2"),
    ("TTATCTTCTACACAGTAGTTGG", "bin 0"),
    ("TTTACATTAAAATACATCCTTA", "bin 2"),
    ("TTAACTTTTCAACATCTTCTAT", "bin 0"),
    ("TTCTTTACAAAACACTGTCTTT", "bin 0"),
    ("TCTACTGACATCAACTTGGCGA", "bin 1"),
    ("TAACTTTTCAACATCTTCTATC", "bin 1"),
    ("TTCTTTGTCACTAAACATCTGT", "bin 2"),
    ("TTTCTTATCTTCTACACAGTAG", "bin 1"),
]

---

The sequences listed here are annotated with their sensor-assay potency score (higher = more potent).
- Target of assay: YPEL3
- Run description: pooled miR-30 sensor sort-seq; sequence = guide strand
- Settings: shRNA
Assay metric: sensor-assay potency score (higher = more potent)

# Biosequence, Target of assay, Measurement
records = [
    ("TTTGAAATCCGCACCATGGCGG", "YPEL3", -0.368),
    ("TTCTCGCAGTGGATGTCGGCGA", "YPEL3", -0.367),
    ("TATACCTCCGGTGACAATCATC", "YPEL3", -1.49),
    ("TTGAGTTCAATGATGTACTTCC", "YPEL3", 0.797),
    ("TTATGTACAAACGCTACAGAAC", "YPEL3", -1.18),
    ("ATATACAGGAGCTAGATCCGTC", "YPEL3", 0.357),
]

---

- Target of assay: BMPR1B
- Run description: pooled miR-30 sensor sort-seq; sequence = guide strand
- Settings: shRNA
Assay metric: sensor-assay potency score (higher = more potent)

# Biosequence, Measurement
measured = [
    ("TTCACCATCTGAATCTGCTTAG", -0.315),
    ("TCTGTCTCTCTGAACCAGCTGG", -0.359),
    ("TATTACATTCGTTCCTTTCTGT", 0.878),
    ("TTGATGCACACAATCTCCCTCA", -0.279),
    ("TTGAGTACTAAAGATTTCTGTG", 0.176),
    ("TATTCTTCCACTATACCTCCTG", 0.554),
    ("TCGTGAAACAATATCCGTCTGT", -0.0353),
    ("TCTGTGATTAGGTACAACTGGG", 0.0109),
    ("TTTCACCATCTGAATCTGCTTA", -0.0649),
    ("TTTTACTTTTCAGATCTCGATG", -0.74),
    ("TCATCGTGAAACAATATCCGTC", -0.268),
    ("TCATCCTCTTCTATCATCGTGA", 0.152),
    ("TTACATTCGTTCCTTTCTGTGC", -0.864),
]

Data provenance: the OligoGym collection
